// provenance: patent US20200002414A1

Target: T1, human Ror2 (human, UniProt Q01974 34-403, limits assumed)
T1 construct: also called hROR2; receptor tyrosine kinase-like orphan receptor 2
T1 sequence (Q01974 34-403 limits assumed): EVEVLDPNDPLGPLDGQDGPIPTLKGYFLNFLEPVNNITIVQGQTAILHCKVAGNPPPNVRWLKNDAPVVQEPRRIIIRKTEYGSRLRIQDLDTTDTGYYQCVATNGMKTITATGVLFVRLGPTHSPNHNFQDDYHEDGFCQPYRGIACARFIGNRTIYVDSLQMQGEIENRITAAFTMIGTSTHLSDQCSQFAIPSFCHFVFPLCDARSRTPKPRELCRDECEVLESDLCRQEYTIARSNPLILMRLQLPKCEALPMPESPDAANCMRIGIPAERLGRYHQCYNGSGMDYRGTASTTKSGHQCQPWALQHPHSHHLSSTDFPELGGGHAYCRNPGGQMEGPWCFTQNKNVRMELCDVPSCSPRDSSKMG
Experiment: ELISA, human Ror2, pH 7.4; further: unit not given here
readout-kind: Affinity ELISA pH 7.4

// below: answered binders
LC-G049P (antibody, V domains shown) VH: EVQLQQSGPELVKPGASVKISCKTSGYTFTEYTMHWMKQSHRKSLEWIGGINTNNGGTGYNQKFKGKATLTVDKSSSTAYMELRSLTSEDSAVYFCARGSLYSYGNSYFDYWGQGTLVTVSS VL: QIVLTQSPAIMSASPGEKVTITCSATSSVSYMHWFQQKPGTSPKLWIYPTSNLASGVPARFSGSGSGTSYSLTISRMEAEDAATYYCQQRSSYPFTFGQGTKVEIK    0.268
LC-H033G (antibody, V domains shown) VH: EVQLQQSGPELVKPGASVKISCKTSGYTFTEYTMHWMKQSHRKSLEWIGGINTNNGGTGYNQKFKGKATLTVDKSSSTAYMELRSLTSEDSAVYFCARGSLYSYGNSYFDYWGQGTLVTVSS VL: QIVLTQSPAIMSASPGEKVTITCSATSSVSYMGWFQQKPGTSPKLWIYGTSNLASGVPARFSGSGSGTSYSLTISRMEAEDAATYYCQQRSSYPFTFGQGTKVEIK    0.536

Kindly review the next binder as well.
Prompt: I have this binder here, LC-Y031C (antibody, V domains shown) VH: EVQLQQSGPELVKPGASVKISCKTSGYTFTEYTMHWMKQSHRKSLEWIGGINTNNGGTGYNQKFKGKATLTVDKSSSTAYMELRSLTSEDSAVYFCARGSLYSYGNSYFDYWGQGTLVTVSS VL: QIVLTQSPAIMSASPGEKVTITCSATSSVSCMHWFQQKPGTSPKLWIYGTSNLASGVPARFSGSGSGTSYSLTISRMEAEDAATYYCQQRSSYPFTFGQGTKVEIK , and I need its recorded Affinity ELISA pH 7.4.
Response: 0.7
